conditions: in DMSO, 298 K
propertyLabel: solubility (mole fraction)
Enter the number alone.

Data request: So what's the measured solubility (mole fraction) for this one? C[n+]1ccn(CCOCCOCCn2cc[n+](C)c2)c1.F[P-](F)(F)(F)(F)F.F[P-](F)(F)(F)(F)F
Data returned: 0.119

* * *

conditions: in water, 283 K
propertyLabel: solubility (mole fraction)
Enter the number alone.

Data request: So what's the measured solubility (mole fraction) for this one? C[n+]1ccn(CCOCCOCCn2cc[n+](C)c2)c1.F[P-](F)(F)(F)(F)F.F[P-](F)(F)(F)(F)F
Data returned: 0.00015

* * *

details: in DMF, 298 K
propertyLabel: solubility (mole fraction)

Data request: So what's the measured solubility (mole fraction) for this one? C[n+]1ccn(CCOCCOCCn2cc[n+](C)c2)c1.F[P-](F)(F)(F)(F)F.F[P-](F)(F)(F)(F)F
Data returned: 0.109

* * *

conditions: in methanol, 293 K
propertyLabel: solubility (mole fraction)

Data request: So what's the measured solubility (mole fraction) for this one? C[n+]1ccn(CCOCCOCCn2cc[n+](C)c2)c1.F[P-](F)(F)(F)(F)F.F[P-](F)(F)(F)(F)F
Data returned: 0.000285

* * *

conditions: in ethanol, 298 K
propertyLabel: solubility (mole fraction)
Enter the number alone.

Data request: So what's the measured solubility (mole fraction) for this one? C[n+]1ccn(CCOCCOCCn2cc[n+](C)c2)c1.F[P-](F)(F)(F)(F)F.F[P-](F)(F)(F)(F)F
Data returned: 5.7e-05

* * *

details: in DMF, 303 K
propertyLabel: solubility (mole fraction)
Enter the number alone.

Data request: So what's the measured solubility (mole fraction) for this one? C[n+]1ccn(CCOCCOCCn2cc[n+](C)c2)c1.F[P-](F)(F)(F)(F)F.F[P-](F)(F)(F)(F)F
Data returned: 0.113

* * *

conditions: in DMSO, 293 K
propertyLabel: solubility (mole fraction)
Enter the number alone.

Data request: So what's the measured solubility (mole fraction) for this one? C[n+]1ccn(CCOCCOCCn2cc[n+](C)c2)c1.F[P-](F)(F)(F)(F)F.F[P-](F)(F)(F)(F)F
Data returned: 0.106

* * *

conditions: in ethanol, 283 K
propertyLabel: solubility (mole fraction)

Data request: So what's the measured solubility (mole fraction) for this one? C[n+]1ccn(CCOCCOCCn2cc[n+](C)c2)c1.F[P-](F)(F)(F)(F)F.F[P-](F)(F)(F)(F)F
Data returned: 3.3e-05

* * *

details: in DMF, 288 K
propertyLabel: solubility (mole fraction)

Data request: So what's the measured solubility (mole fraction) for this one? C[n+]1ccn(CCOCCOCCn2cc[n+](C)c2)c1.F[P-](F)(F)(F)(F)F.F[P-](F)(F)(F)(F)F
Data returned: 0.101

* * *

conditions: in DMF, 283 K
propertyLabel: solubility (mole fraction)
Enter the number alone.

Data request: So what's the measured solubility (mole fraction) for this one? C[n+]1ccn(CCOCCOCCn2cc[n+](C)c2)c1.F[P-](F)(F)(F)(F)F.F[P-](F)(F)(F)(F)F
Data returned: 0.098

* * *

conditions: in DMF, 293 K
propertyLabel: solubility (mole fraction)
Enter the number alone.

Data request: So what's the measured solubility (mole fraction) for this one? C[n+]1ccn(CCOCCOCCn2cc[n+](C)c2)c1.F[P-](F)(F)(F)(F)F.F[P-](F)(F)(F)(F)F
Data returned: 0.105

* * *

settings: in ethanol, 293 K
propertyLabel: solubility (mole fraction)
Enter the number alone.

Data request: So what's the measured solubility (mole fraction) for this one? C[n+]1ccn(CCOCCOCCn2cc[n+](C)c2)c1.F[P-](F)(F)(F)(F)F.F[P-](F)(F)(F)(F)F
Data returned: 4.7e-05

* * *

details: in ethanol, 288 K
propertyLabel: solubility (mole fraction)
Enter the number alone.

Data request: So what's the measured solubility (mole fraction) for this one? C[n+]1ccn(CCOCCOCCn2cc[n+](C)c2)c1.F[P-](F)(F)(F)(F)F.F[P-](F)(F)(F)(F)F
Data returned: 4e-05

* * *

details: in DMSO, 303 K
propertyLabel: solubility (mole fraction)
Enter the number alone.

Data request: So what's the measured solubility (mole fraction) for this one? C[n+]1ccn(CCOCCOCCn2cc[n+](C)c2)c1.F[P-](F)(F)(F)(F)F.F[P-](F)(F)(F)(F)F
Data returned: 0.131

* * *

details: in DMSO, 308 K
propertyLabel: solubility (mole fraction)
Enter the number alone.

Data request: So what's the measured solubility (mole fraction) for this one? C[n+]1ccn(CCOCCOCCn2cc[n+](C)c2)c1.F[P-](F)(F)(F)(F)F.F[P-](F)(F)(F)(F)F
Data returned: 0.14

* * *

settings: in water, 293 K
propertyLabel: solubility (mole fraction)
Enter the number alone.

Data request: So what's the measured solubility (mole fraction) for this one? C[n+]1ccn(CCOCCOCCn2cc[n+](C)c2)c1.F[P-](F)(F)(F)(F)F.F[P-](F)(F)(F)(F)F
Data returned: 0.000257

The origin of these recorded values is BigSolDB 2.1.
